# System: RXF 393 renal
# Procedure Text: NCI-60 one-dose screen, 48 h (100 = growth as untreated, 0 = no growth, -100 = all killed)
# Experimental Setup: 10 µM unless noted
This is part of a sample that, as a whole, favours compounds with a hit. Of some 83,000 tested, about 20% had one in any assay. *1 amine or outer side, *2 acyl side, *3 side chain or, on linkers, in order; H or OH if unused. Where a SMILES comes first, the peptide text is derived from it. [ ]: non-standard residue; d: D form. The star is where a group is joined. X5 = CCC(=O)CC1CC(C)CC(C(=O)[*:2])N1[*:1]; X4 = CCCCCCCCC(C)C(=O)*; Aib = CC(C)(N)C(=O)O; X6 = CC(CN(C)CCO)N*
Hi! Could you tag entries with growth below 20% as 1.0, and those at or above as 0.0? Much appreciated.

[
  {
    "Compound": "OC(c1cc2ccc(C(F)(F)F)cc2c2cc(C(F)(F)F)ccc12)C1CCCCN1 (centres undefined)",
    "Assigned Label": 1.0
  },
  {
    "Compound": "Oc1c(C(Nc2ccccc2)c2ccccc2)ccc2cccnc12 (centres undefined)",
    "Assigned Label": 0.0
  },
  {
    "Compound": "Cc1cc(I)nc2ccccc12",
    "Assigned Label": 0.0
  },
  {
    "Compound": "COc1cccc2c1C(=O)c1c(O)c3c(c(O)c1C2=O)C[C@@](O)(C(=O)CO)C[C@@H]3OC1CC(OC(C)=O)C(OC(C)=O)C(C)O1 (some centres undefined)",
    "Assigned Label": 1.0
  },
  {
    "Compound": "Oc1ccc2ccccc2c1N=Nc1nccs1",
    "Assigned Label": 0.0
  },
  {
    "Compound": "O=C1Nc2ccc(Br)cc2C1=O",
    "Assigned Label": 0.0
  },
  {
    "Compound": "O=[N+]([O-])CC(O)c1ccccc1 (centres undefined)",
    "Assigned Label": 0.0
  },
  {
    "Compound": "NC1=C(Br)C(=O)c2ncccc2C1=O",
    "Assigned Label": 1.0
  },
  {
    "Compound": "OC(Cc1cc(CC(O)(C(F)(F)F)C(F)(F)F)nc(CC(O)(C(F)(F)F)C(F)(F)F)c1)(C(F)(F)F)C(F)(F)F",
    "Assigned Label": 1.0
  },
  {
    "Compound": "O=C(OC12CC3CC(CC(C3)C1)C2)c1ccc(NCc2cc(O)ccc2O)cc1",
    "Assigned Label": 1.0
  },
  {
    "Compound": "COc1c(C)c2c(c(O)c1C/C=C(\\C)CCC(=O)O)C(=O)OC2",
    "Assigned Label": 0.0
  },
  {
    "Compound": "Nc1nc2ncc(CNc3ccc(C(=O)NC(CCC(=O)NC(CCC(=O)NC(CCC(=O)NC(CCC(=O)NC(CCC(=O)O)C(=O)O)C(=O)O)C(=O)O)C(=O)O)C(=O)O)cc3)nc2c(=O)[nH]1 (centres undefined)",
    "Assigned Label": 0.0
  },
  {
    "Compound": "O=C(/C(Cl)=N/O)c1ccc(-c2ccccc2)cc1",
    "Assigned Label": 0.0
  },
  {
    "Compound": "Nc1nc(-c2ccccc2)nc(N)c1N=O",
    "Assigned Label": 0.0
  },
  {
    "Compound": "COc1ccc(NC(=O)/C(=C/N2C(=O)/C(=C/c3ccc(OC)c(OC)c3)NC2=S)C(C)=O)cc1",
    "Assigned Label": 0.0
  },
  {
    "Compound": "CCN(CC)c1ccc(/C=C\\C(=O)c2ccc(NC(C)=O)cc2)cc1",
    "Assigned Label": 0.0
  },
  {
    "Compound": "CCCCCCCCCCCCSC(=N)N",
    "Assigned Label": 0.0
  },
  {
    "Compound": "O=C(NNc1ccccc1)OCc1ccccc1",
    "Assigned Label": 0.0
  },
  {
    "Compound": "COC(=O)Nc1nc2ccc(C3(c4ccc(F)cc4)OCCO3)cc2[nH]1",
    "Assigned Label": 1.0
  },
  {
    "Compound": "O=C1C=CC(=O)N1c1cccc2c1CCCC2",
    "Assigned Label": 0.0
  },
  {
    "Compound": "NC(=S)Nc1ccc2c(c1)Cc1ccccc1-2",
    "Assigned Label": 0.0
  },
  {
    "Compound": "CCCCCCCCC(C)C(=O)N1CCCC1C(=O)N1C(CC(=O)CC)CC(C)CC1C(=O)NC(C)C(=O)NC(C)(C)C(=O)NC(C)(C)C(=O)NC(C(=O)NC(C)C(=O)NC(C)(C)C(=O)NC(C)(C)C(=O)NC(C)CN(C)CCO)C(C)CC (centres undefined) (X4-P[X5]A[Aib][Aib]IA[Aib][Aib]-X6; configuration not given here)",
    "Assigned Label": 1.0
  },
  {
    "Compound": "O=C(Nc1ccc(Cl)c(Cl)c1)Nc1ccccc1O",
    "Assigned Label": 0.0
  },
  {
    "Compound": "c1ccc(-c2cccc(-c3ccccn3)n2)nc1",
    "Assigned Label": 0.0
  },
  {
    "Compound": "CC1(C)OCC(COC(c2ccccc2)(c2ccccc2)c2ccccc2)O1 (centres undefined)",
    "Assigned Label": 0.0
  },
  {
    "Compound": "CCN(CC)CCNC(Cc1ccccc1)c1ccc(OCc2ccccc2)cc1 (centres undefined)",
    "Assigned Label": 0.0
  },
  {
    "Compound": "CN1CCC(c2ccccc2)(c2ccccc2)C(=O)C1",
    "Assigned Label": 0.0
  },
  {
    "Compound": "CCCCN(CCCC)CCCCCCCCCCO",
    "Assigned Label": 0.0
  },
  {
    "Compound": "CC1=CC(=NC(=O)CBr)C=C/C1=N\\S(=O)(=O)c1ccccc1",
    "Assigned Label": 0.0
  },
  {
    "Compound": "CCCCCCCCCCCC1N=C(N)N=C(N)N1c1cccc(Br)c1 (centres undefined)",
    "Assigned Label": 1.0
  },
  {
    "Compound": "O=C(CCl)N1c2ccccc2Sc2c1ccc1ccccc21",
    "Assigned Label": 0.0
  },
  {
    "Compound": "CCNc1nnnn1CC",
    "Assigned Label": 0.0
  },
  {
    "Compound": "CCCCC(C=O)(C=C=C(C)C)CC (centres undefined)",
    "Assigned Label": 0.0
  },
  {
    "Compound": "NNc1ccc(Cl)cc1Cl",
    "Assigned Label": 0.0
  },
  {
    "Compound": "CCOc1ccc(C(C[N+](=O)[O-])Sc2ccccc2N)cc1 (centres undefined)",
    "Assigned Label": 1.0
  },
  {
    "Compound": "COc1cc(/C=C/c2ccnc3ccccc23)cc(OC)c1OC",
    "Assigned Label": 0.0
  },
  {
    "Compound": "COC(=O)c1nc(=S)[nH]c(C(=O)OC)c1C(=O)c1ccc(Cl)c(Cl)c1",
    "Assigned Label": 0.0
  },
  {
    "Compound": "CC1CC(C)(C)OB(OC(C)CC(C)(C)OB2OC(C)CC(C)(C)O2)O1 (centres undefined)",
    "Assigned Label": 0.0
  },
  {
    "Compound": "CC(C)(C)c1ccc(CCO)cc1",
    "Assigned Label": 0.0
  },
  {
    "Compound": "CCCCCCCCCCCC[n+]1ccc(CCCCCCCCC)cc1",
    "Assigned Label": 1.0
  },
  {
    "Compound": "OC(c1cc(C23CC4CC(CC(C4)C2)C3)nc2c(Cl)cc(Cl)cc12)C1CCCCN1 (centres undefined)",
    "Assigned Label": 1.0
  },
  {
    "Compound": "Cn1ccc(=Nc2ccc(NC(=O)c3ccc(N=c4ccn(C)c5ccc([N+](=O)[O-])cc45)cc3)cc2)cc1",
    "Assigned Label": 1.0
  },
  {
    "Compound": "CCOC(=O)c1c(C)[nH]c2ccc(O)cc12",
    "Assigned Label": 0.0
  }
]

* * *

# Tested on: SF-539 CNS
# Procedure Text: NCI-60 one-dose screen, 48 h
# Experimental Setup: 10 µM unless noted
About 83,000 compounds went through this panel and 20% of them were active in at least one assay; those are over-represented in the sample as a whole. Activity calls are given as the source filed them. How the source made its calls: active means growth percent below 10; inactive means the rest.
Possible outcomes: active, inactive

[
  {
    "Compound": "CN(C)c1ccc2cc3c(cc2c1)Oc1ccccc1N3.[Cl][Zn][Cl]",
    "Assigned Label": "inactive"
  },
  {
    "Compound": "CCCCCCCCCCCC[n+]1ccc(CCCCCCCCC)cc1",
    "Assigned Label": "active"
  },
  {
    "Compound": "CCCCCC/C=C1\\CCC(CN2CCCC2)C1=O (stereo unspecified)",
    "Assigned Label": "inactive"
  },
  {
    "Compound": "CCOc1ccc(C(CN2CCOCC2)C(C)=O)cc1OC (stereo unspecified)",
    "Assigned Label": "inactive"
  },
  {
    "Compound": "O=C(CBr)c1ccc(OC(=O)c2ccccc2)cc1",
    "Assigned Label": "inactive"
  },
  {
    "Compound": "CCN(CC)CC(O)c1cc(-c2ccc(Cl)cc2)nc2cc(Cl)ccc12 (stereo unspecified)",
    "Assigned Label": "inactive"
  },
  {
    "Compound": "Clc1ccc(-n2ncc3c(NCCCN4CCOCC4)ncnc32)cc1",
    "Assigned Label": "inactive"
  },
  {
    "Compound": "CCC(C)(O)Cc1ccc(Cl)cc1 (stereo unspecified)",
    "Assigned Label": "inactive"
  },
  {
    "Compound": "O=Nc1ccc2ccccc2c1O",
    "Assigned Label": "inactive"
  },
  {
    "Compound": "COc1cc(NC(=O)C2=C(C)NC(C)=C(C(=O)Nc3cc(OC)c(Cl)cc3OC)C2c2cccc([N+](=O)[O-])c2)c(OC)cc1Cl",
    "Assigned Label": "inactive"
  },
  {
    "Compound": "Nc1nc(N)c2cc(Sc3cccc(C(F)(F)F)c3)ccc2n1",
    "Assigned Label": "inactive"
  },
  {
    "Compound": "CN(C)CCN(C)CC(C)(C)C(=O)/C=C/c1ccc(Cl)c(Cl)c1",
    "Assigned Label": "active"
  },
  {
    "Compound": "Cn1c(-c2ccccc2)c(/C=C/C2=[N+](C)c3ccccc3C2(C)C)c2ccccc21",
    "Assigned Label": "inactive"
  },
  {
    "Compound": "Cc1onc(-c2ccccc2)c1C(=O)N/N=C/c1cc(Cl)cc(Cl)c1O",
    "Assigned Label": "inactive"
  },
  {
    "Compound": "Oc1ccc2ccccc2c1N=Nc1nccs1",
    "Assigned Label": "inactive"
  },
  {
    "Compound": "Cc1c(O)ccc(SC#N)c1C",
    "Assigned Label": "inactive"
  },
  {
    "Compound": "CCCOS(=O)(=O)c1ccccc1",
    "Assigned Label": "inactive"
  },
  {
    "Compound": "O=C1/C(=C/c2ccccc2)CCC/C1=C\\c1ccccc1",
    "Assigned Label": "inactive"
  },
  {
    "Compound": "O=S(=O)(O)c1cnccn1",
    "Assigned Label": "inactive"
  },
  {
    "Compound": "C=C(C(N)=O)C(N)C(=O)O (stereo unspecified)",
    "Assigned Label": "inactive"
  },
  {
    "Compound": "c1ccc(-c2cc3cc4ccccc4cn3c2)cc1",
    "Assigned Label": "inactive"
  },
  {
    "Compound": "CC(O)C(O)C(O)C(O)C(O)C(=O)NNc1ccccc1 (stereo unspecified)",
    "Assigned Label": "inactive"
  },
  {
    "Compound": "S=C1SCN(Cc2cccs2)CN1Cc1cccs1",
    "Assigned Label": "inactive"
  },
  {
    "Compound": "O=C1/C(=C\\c2ccc([N+](=O)[O-])cc2)CS(=O)(=O)C/C1=C/c1ccc([N+](=O)[O-])cc1",
    "Assigned Label": "active"
  },
  {
    "Compound": "CN(C)CCSC1=Nc2ccc(Cl)cc2C(c2ccccc2Cl)N(C)C1 (stereo unspecified)",
    "Assigned Label": "inactive"
  },
  {
    "Compound": "O=C(NNc1ccccc1)OCc1ccccc1",
    "Assigned Label": "inactive"
  }
]
